Target: T1, wild-type non-luminescent polypeptide (WT fragment of residues 1-156 of NanoLuc)
T1 chain: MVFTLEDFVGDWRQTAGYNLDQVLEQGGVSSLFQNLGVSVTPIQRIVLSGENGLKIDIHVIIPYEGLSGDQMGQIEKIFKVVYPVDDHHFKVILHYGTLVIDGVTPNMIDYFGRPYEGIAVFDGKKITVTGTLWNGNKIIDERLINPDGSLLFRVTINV
Assay: luminescence complementation; average HeLa, HEK293, CHO lysates
experimentalReadout: Kd

Q: Can you share its Kd? I mean this binder: GVTGWRLCERILA [NLpepWT]
Ans: 8.35 µM

// switching to the query binder
Q: Can you share its Kd? I mean this binder: NVTGYRLFKKISN [NLpep79]
Ans: 5.13 µM

Source of measurements: patent US20140348747A1
